Origin of the recorded values: paper PMC4336329

Target: human ether-à-go-go-related gene (hERG) potassium channel (human);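 note: peak tail current of the secondary pulse compared with the same well before compound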
Sequence (Q12809 whole entry, looked up): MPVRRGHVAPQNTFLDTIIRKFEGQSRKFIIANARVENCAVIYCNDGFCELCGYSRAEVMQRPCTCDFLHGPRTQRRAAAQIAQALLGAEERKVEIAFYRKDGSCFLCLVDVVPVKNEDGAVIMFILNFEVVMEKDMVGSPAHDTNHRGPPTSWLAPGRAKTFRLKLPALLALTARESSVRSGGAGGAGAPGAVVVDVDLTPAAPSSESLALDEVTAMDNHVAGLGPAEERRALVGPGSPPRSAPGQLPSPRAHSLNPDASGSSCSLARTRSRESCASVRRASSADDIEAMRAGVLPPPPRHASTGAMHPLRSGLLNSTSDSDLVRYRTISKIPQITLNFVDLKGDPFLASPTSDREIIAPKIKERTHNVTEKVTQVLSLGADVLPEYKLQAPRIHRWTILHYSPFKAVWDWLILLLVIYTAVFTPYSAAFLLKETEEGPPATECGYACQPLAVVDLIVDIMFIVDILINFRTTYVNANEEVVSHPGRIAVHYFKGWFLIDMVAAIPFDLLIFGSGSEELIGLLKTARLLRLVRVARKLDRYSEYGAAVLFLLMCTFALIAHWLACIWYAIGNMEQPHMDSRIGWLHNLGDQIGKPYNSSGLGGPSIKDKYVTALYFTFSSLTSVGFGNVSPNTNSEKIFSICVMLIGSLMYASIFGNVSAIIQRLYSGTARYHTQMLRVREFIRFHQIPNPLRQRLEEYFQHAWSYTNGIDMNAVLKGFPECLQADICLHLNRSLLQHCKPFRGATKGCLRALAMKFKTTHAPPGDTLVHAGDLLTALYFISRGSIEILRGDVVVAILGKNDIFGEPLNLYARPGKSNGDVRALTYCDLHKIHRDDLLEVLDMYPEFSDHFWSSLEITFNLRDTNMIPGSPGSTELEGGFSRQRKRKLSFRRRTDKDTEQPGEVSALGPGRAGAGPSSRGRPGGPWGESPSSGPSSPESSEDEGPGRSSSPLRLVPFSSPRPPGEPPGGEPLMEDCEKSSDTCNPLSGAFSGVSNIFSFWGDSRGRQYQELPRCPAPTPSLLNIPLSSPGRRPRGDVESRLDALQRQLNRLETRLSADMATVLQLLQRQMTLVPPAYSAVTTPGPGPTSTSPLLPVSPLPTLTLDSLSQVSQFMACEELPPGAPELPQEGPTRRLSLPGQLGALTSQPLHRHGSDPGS
Test: primary screen, population patch clamp on CHO cells stably expressing hERG; higher = less effect of the substance
Method: Briefly, Chinese hamster ovary (CHO) cells stably expressing the hERG channel were dislodged from tissue culture flasks and dispensed into PPC plates. […] During the recording, background leak currents were estimated by a 100 ms step to -80 mV from an initial holding potential of -70 mV and subtracted from the subsequent current measurement. The campaign was conducted in two phases using slight differences in recording protocol. […]
In all, about 310,000 compounds went through this assay and about 14,000 (4.5%) showed an effect of 50% or more. Effects have a minus sign here. Many of the other results were omitted from the sample, so strong results are more common in it than they were.
measuredProperty: hERG current change (%, negative = inhibition) at 10uM (%)
Enter your answer as a number in %; do not include the unit.

// below: answered compounds
# compound, reportedMeasurement
records = [
    ("Cc1ccc(S(=O)(=O)N(Cc2cccc(C(F)(F)F)c2)C(=O)N2CCN(C)CC2)cc1", 10.3),
    ("O=C(CCn1cccn1)N1CCCC(N2CCN(c3cccc(Cl)c3)CC2)C1 (stereo not drawn)", -54.1),
    ("O=C(Cn1c(=O)oc2cc(S(=O)(=O)N3CCCC3)ccc21)N1CCc2ccccc2C1", -32.3),
    ("O=C(CCn1cncn1)N1CCCC(N2CCN(c3cccc(C(F)(F)F)c3)CC2)C1 (stereo not drawn)", -35.8),
    ("CCCCN(C)Cc1c(C)[nH]c2c(ccc3ccccc32)c1=O", -73.6),
]

query: State its hERG current change (%, negative = inhibition) at 10uM on human ether-à-go-go-related gene (hERG) potassium channel (human): COC(=O)CCC(=O)N1CCCC(N2CCN(c3cccc(C(F)(F)F)c3)CC2)C1 (stereo not drawn)
result: -35.8

query: State its hERG current change (%, negative = inhibition) at 10uM on human ether-à-go-go-related gene (hERG) potassium channel (human): O=C(CCn1cccn1)N1CCCC(N2CCN(c3cccc(C(F)(F)F)c3)CC2)C1 (stereo not drawn)
result: -53.6

query: State its hERG current change (%, negative = inhibition) at 10uM on human ether-à-go-go-related gene (hERG) potassium channel (human): `O=C(Nc1ccc2c(c1)CCC2)Nc1ccccc1F`
result: -61.6

query: State its hERG current change (%, negative = inhibition) at 10uM on human ether-à-go-go-related gene (hERG) potassium channel (human): `CCCCN(CC)Cc1c(C)[nH]c2c(ccc3ccccc32)c1=O`
result: -74.3
